Here the recorded pIC50 is given for each entry.
molecular target: HIF-2α (Homo sapiens, UniProt Q99814); test: HIF-2α Luciferase Reporter Assay (serum), HRE-luciferase 786-0 cells in 100% human serum; format: cell-based; conditions: 100% human serum, 786-0 reporter cells, overnight incubation; read-out: Serum Potency
Sequence (Q99814 whole entry): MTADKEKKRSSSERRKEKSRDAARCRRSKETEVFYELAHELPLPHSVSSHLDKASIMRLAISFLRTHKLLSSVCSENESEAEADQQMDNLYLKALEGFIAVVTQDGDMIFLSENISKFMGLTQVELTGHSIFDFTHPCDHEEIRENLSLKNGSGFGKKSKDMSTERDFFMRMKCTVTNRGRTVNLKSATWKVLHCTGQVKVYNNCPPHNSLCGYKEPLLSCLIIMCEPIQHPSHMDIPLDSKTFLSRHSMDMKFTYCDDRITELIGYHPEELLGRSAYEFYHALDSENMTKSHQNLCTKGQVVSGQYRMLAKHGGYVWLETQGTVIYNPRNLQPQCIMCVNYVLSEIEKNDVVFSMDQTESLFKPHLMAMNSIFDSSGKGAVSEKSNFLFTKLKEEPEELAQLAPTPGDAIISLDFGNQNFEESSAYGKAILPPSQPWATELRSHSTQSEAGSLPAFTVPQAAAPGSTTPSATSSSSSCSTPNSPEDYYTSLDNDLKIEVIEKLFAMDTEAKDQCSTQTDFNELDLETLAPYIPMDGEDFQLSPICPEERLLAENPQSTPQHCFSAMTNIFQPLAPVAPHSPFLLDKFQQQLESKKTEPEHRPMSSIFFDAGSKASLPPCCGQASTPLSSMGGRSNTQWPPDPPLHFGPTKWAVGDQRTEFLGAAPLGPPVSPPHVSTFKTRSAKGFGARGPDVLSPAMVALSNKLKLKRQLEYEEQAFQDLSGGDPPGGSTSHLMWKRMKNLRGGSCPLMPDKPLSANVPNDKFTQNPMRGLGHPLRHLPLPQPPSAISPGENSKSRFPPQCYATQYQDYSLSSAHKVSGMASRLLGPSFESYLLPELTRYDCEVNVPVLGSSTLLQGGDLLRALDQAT
pIC50: −log10 of the molar value.

{"molecule": "O[C@H]1c2c(C(F)(F)F)nn(C3CCO[C@H](C(F)(F)F)C3)c2CC1(F)F (single isomer, unassigned) [94/95 DIAST-2]", "pIC50": "< 6.00"}
{"molecule": "O[C@H]1c2c(C(F)(F)F)nn(CCC(F)(F)F)c2CCC1(F)F", "pIC50": "< 6.00"}
{"molecule": "O[C@H]1c2c(C(F)(F)F)nn(CCCC(F)(F)F)c2[C@H](F)C1(F)F (single isomer, unassigned)", "pIC50": "< 6.00"}
{"molecule": "O[C@H]1c2c(C(F)(F)F)nn([C@@H]3CC[C@@H](F)[C@@H](F)C3)c2[C@@H](F)[C@H]1F (single isomer, unassigned) [141/142 DIAST-1]", "pIC50": "6.00 to 7.00"}
{"molecule": "O[C@H]1c2c(C(F)(F)F)nn([C@H]3C[C@@]4(CC4(F)F)C3)c2CC1(F)F", "pIC50": "< 6.00"}
{"molecule": "CO[C@H](CCn1nc(C(F)(F)F)c2c1[C@@H](F)[C@@H](F)[C@H]2O)C(F)(F)F", "pIC50": "> 7.00"}
{"molecule": "O[C@H]1c2c(C(F)(F)F)nn(CCCOC(F)(F)F)c2CCC1(F)F", "pIC50": "6.00 to 7.00"}
{"molecule": "O[C@H]1c2c(C(F)(F)F)nn([C@@H]3C[C@@H](F)[C@@H](F)[C@@H](F)C3)c2CC1(F)F", "pIC50": "6.00 to 7.00"}
{"molecule": "O[C@H]1c2c(C(F)(F)F)nn(-c3ccc(Cl)cc3)c2CC1(F)F", "pIC50": "< 6.00"}
{"molecule": "CCO[C@H](CCn1nc(C(F)(F)F)c2c1CC(F)(F)[C@H]2O)C(F)(F)F", "pIC50": "< 6.00"}
{"molecule": "CC(CCn1nc(C#N)c2c1CCC(F)(F)[C@H]2O)C(F)(F)F (stereo partly drawn)", "pIC50": "< 6.00"}
{"molecule": "O[C@H]1c2c(C(F)(F)F)nn(CCC3CC3(F)F)c2CCC1(F)F (stereo partly drawn)", "pIC50": "6.00 to 7.00"}
{"molecule": "O[C@H]1c2c(C(F)(F)F)nn(CCCOC(F)(F)F)c2C[C@@H]1F", "pIC50": "< 6.00"}
{"molecule": "CO[C@H](CCn1nc(C(F)(F)F)c2c1[C@@H](F)C(F)(F)[C@H]2O)C(F)(F)F (single isomer, unassigned) [148/149 DIAST-2]", "pIC50": "6.00 to 7.00"}
{"molecule": "O[C@H]1c2c(C(F)(F)F)nn(C3CCC[C@H](OC(F)F)C3)c2CC1(F)F (mixture of isomers)", "pIC50": "< 6.00"}

###

molecular target: HIF-2α (Homo sapiens); experiment: HIF-2α Luciferase Reporter Assay (serum free) in HIF-Luc-786-0 cells; format: cell-based; details: Opti-MEM, 786-0 reporter cells, 20 hours incubation
reported.property: IC50

{"molecule": "O[C@H]1c2c(C(F)(F)F)nn([C@H]3CC[C@H](OC(F)F)C3)c2CC1(F)F (racemic) [Example 110]", "test.value": "< 100 nM"}
{"molecule": "O[C@H]1c2c(C(F)(F)F)nn(C[C@@H](F)C3CC3)c2CCC1(F)F (single isomer, unassigned) [26/27 DIAST-1]", "test.value": "> 1000 nM"}
{"molecule": "C[C@H](C#N)CCn1nc(C(F)(F)F)c2c1C[C@@H](F)[C@H]2O [Example 83]", "test.value": "100 to 1000 nM"}
{"molecule": "O[C@H]1c2c(C(F)(F)F)nn([C@@H]3C[C@@H](F)[C@@H](F)[C@@H](F)C3)c2[C@@H](F)[C@H]1F [Example 140]", "test.value": "< 100 nM"}
{"molecule": "CC(C)CCn1nc(C(F)(F)F)c2c1CCC(F)(F)[C@H]2O [Example 40]", "test.value": "100 to 1000 nM"}
{"molecule": "O[C@H]1c2c(C(F)(F)F)nn([C@@H]3CC[C@@H](F)[C@@H](F)C3)c2[C@H](F)C1(F)F [Example 153]", "test.value": "100 to 1000 nM"}
{"molecule": "O[C@H]1c2c(C(F)(F)F)nn(CCC3CC3(F)F)c2[C@@H](F)[C@H]1F (stereo partly shown) [Example 152]", "test.value": "100 to 1000 nM"}

###

Molecular target: HIF-2α (Homo sapiens)
Test: HIF-2α Luciferase Reporter Assay (serum), HRE-luciferase 786-0 cells in 100% human serum
Format: cell-based
Settings: 100% human serum, 786-0 reporter cells, overnight incubation; read-out: Serum Potency
Protocol: Generation of HIF-2α Luciferase 786-0 Cell Line: Stable cell lines were generated by transducing 786-0 cells (ATCC, CRL-1932) with Cignal Lenti HIF Luc Reporter lentivirus (CLS-007L, Qiagen) according to the manufacturer's guidelines. In brief, 0.3×10^6 786-0 cells were transduced with lentivirus at a multiplicity of infection (MOI) of 25 for 24 hours. […]
pIC50: −log10 of the molar value.

{"compound.structure": "O[C@H]1c2c(C(F)(F)F)nn(CCCC(F)(F)F)c2CC[C@H]1F", "pIC50": "6.00 to 7.00"}
{"compound.structure": "O[C@H]1c2c(C(F)(F)F)nn(-c3ccc(Cl)c(F)c3)c2CC1(F)F", "pIC50": "< 6.00"}
{"compound.structure": "C[C@H](C#N)CCn1nc(C(F)(F)F)c2c1C[C@@H](F)[C@H]2O", "pIC50": "< 6.00"}
{"compound.structure": "O[C@H]1c2c(C(F)(F)F)nn(CCC3(C(F)(F)F)CC3)c2CCC1(F)F", "pIC50": "< 6.00"}
{"compound.structure": "O[C@H]1c2c(C(F)(F)F)nn(CCc3cccc(F)c3)c2CC1(F)F", "pIC50": "< 6.00"}

###

target: HIF-2α (Homo sapiens, UniProt Q99814); experiment: HIF-2α Luciferase Reporter Assay (serum), HRE-luciferase 786-0 cells in 100% human serum; type: cell-based; settings: 100% human serum, 786-0 reporter cells, overnight incubation; read-out: Serum Potency
Here the recorded IC50 is given for each entry.

{"compound": "O[C@H]1c2c(C(F)(F)F)nn(CCC3CC3)c2CCC1(F)F [Example 22]", "IC50": "> 1000 nM"}
{"compound": "O[C@H]1c2c(C(F)(F)F)nn(CCCC(F)F)c2CCC1(F)F [Example 31]", "IC50": "> 1000 nM"}
{"compound": "CC(C)CCn1nc(C(F)(F)F)c2c1CCC(F)(F)[C@H]2O [Example 40]", "IC50": "> 1000 nM"}
{"compound": "O[C@H]1c2c(C(F)(F)F)nn([C@H]3CCO[C@@H](C(F)(F)F)C3)c2CC1(F)F (single isomer, unassigned) [94/95 DIAST-1]", "IC50": "> 1000 nM"}
{"compound": "CC(CCn1nc(C(F)(F)F)c2c1CCC(F)(F)[C@H]2O)C(F)(F)F (some centres unmarked) [Example 38]", "IC50": "100 to 1000 nM"}

###

Here the recorded Serum Shift (approximate) is given for each entry.
target: UniProt Q99814; assay: HIF-2α Luciferase Reporter Assay (serum), HRE-luciferase 786-0 cells in 100% human serum; assay type: cell-based; details: ratio of IC50 in 100% serum to IC50 in serum free conditions; approximate

{"molecule": "O[C@H]1c2c(C(F)(F)F)nn(CCC3CC3(F)F)c2[C@@H](F)[C@H]1F (some centres unmarked)", "Serum Shift (approximate)": 3}
{"molecule": "O[C@H]1c2c(C(F)(F)F)nn([C@H]3CC[C@H](F)CC3)c2CC1(F)F", "Serum Shift (approximate)": 7}
{"molecule": "O[C@H]1c2c(C(F)(F)F)nn(-c3ccc(Cl)c(Cl)c3)c2CC1(F)F", "Serum Shift (approximate)": 119}
{"molecule": "O[C@H]1c2c(C(F)(F)F)nn(C3COCC(F)(F)C3)c2CC1(F)F (some centres unmarked)", "Serum Shift (approximate)": 6}
{"molecule": "O[C@H]1c2c(C(F)(F)F)nn([C@H]3C[C@@H](F)[C@@H](F)[C@@H](F)C3)c2[C@@H](F)[C@H]1F", "Serum Shift (approximate)": 9}
